Test system: LNCaP
test-details: Cell growth inhibition assay, prostate cancer cell line LNCaP (medium with 10 ng/mL IL-6)
Type: cell-based
condition-description: Homo sapiens, medium supplemented with 10 ng/mL of IL-6, 10,000 cells/well
The entries below come with measured IC50 values attached.
Quick note: give the figure in µM, leave out the unit.

1. CS(=O)(=O)Nc1ccc2sc(C(=O)Nc3cc(-c4ccc(F)cc4F)cc(Cl)n3)cc2c1
0.94

Please examine the following record next.
Item "CC(C)Oc1cc(Cl)cc(C(C)(C)c2cc(Cl)cc(NC(=O)c3cc4cc(NS(C)(=O)=O)ccc4s3)c2)c1" has what recorded IC50?
0.071

----------
The entries below come with measured IC50 values attached.
assay-system: STAT3 (Homo sapiens, UniProt P40763)
Construct: plasmid pSTAT3-TA-luc), which contains a stably operating STAT3 promoter; endogenous in cells
Sequence (P40763 whole entry): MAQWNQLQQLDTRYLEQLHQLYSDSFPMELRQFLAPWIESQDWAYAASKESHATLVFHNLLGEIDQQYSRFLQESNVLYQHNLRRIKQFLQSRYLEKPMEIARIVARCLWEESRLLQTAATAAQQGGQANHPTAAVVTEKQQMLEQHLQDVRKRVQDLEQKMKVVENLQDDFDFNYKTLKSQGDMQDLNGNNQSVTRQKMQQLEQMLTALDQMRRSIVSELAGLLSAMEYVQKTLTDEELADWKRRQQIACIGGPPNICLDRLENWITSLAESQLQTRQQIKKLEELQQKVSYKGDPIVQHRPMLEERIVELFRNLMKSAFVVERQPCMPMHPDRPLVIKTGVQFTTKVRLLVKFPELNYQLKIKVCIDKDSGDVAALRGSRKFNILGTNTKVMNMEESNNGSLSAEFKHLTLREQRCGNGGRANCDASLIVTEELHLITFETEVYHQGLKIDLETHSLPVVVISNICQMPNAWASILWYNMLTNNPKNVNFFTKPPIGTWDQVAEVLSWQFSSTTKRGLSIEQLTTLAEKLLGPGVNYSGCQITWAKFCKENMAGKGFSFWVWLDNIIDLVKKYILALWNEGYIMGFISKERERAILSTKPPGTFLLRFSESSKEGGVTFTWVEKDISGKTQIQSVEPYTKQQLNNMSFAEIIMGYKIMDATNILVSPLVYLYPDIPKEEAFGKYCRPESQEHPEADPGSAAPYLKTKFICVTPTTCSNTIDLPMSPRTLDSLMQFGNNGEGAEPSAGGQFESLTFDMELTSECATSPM
test-details: STAT3 reporter gene assay (luciferase), LNCaP stable cell line (pSTAT3-TA-luc), IL-6 stimulation
Assay type: cell-based
Quick note: give the figure in µM, leave out the unit.

Item "CC(C)(c1ccsc1)c1cc(Cl)cc(NC(=O)c2cc3cc(NS(C)(=O)=O)ccc3s2)c1" has what recorded IC50?
0.074

"COc1cc(OC(F)(F)F)cc(C(C)(C)c2cc(Cl)cc(NC(=O)c3cc4cc(NS(C)(=O)=O)ccc4s3)c2)c1" ?
0.007

"COc1cc(NC(=O)c2cc3ccc(N(C)S(C)(=O)=O)cc3[nH]2)cc(-c2ccc(F)cc2F)c1" ?
1.5

"CS(=O)(=O)Nc1ccc2cc(C(=O)Nc3cccc(S(=O)(=O)c4cccc(Cl)c4)c3)[nH]c2c1" ?
2.4

"CC(C)(c1cc(Cl)cc(NC(=O)c2cc3cc(NS(C)(=O)=O)ccc3s2)c1)c1cccs1" ?
0.068

"CN(c1ccc(Cl)cc1)c1cc(Cl)cc(NC(=O)c2cc3cc(NS(C)(=O)=O)ccc3s2)c1" ?
0.036

"CCC(CC)(c1ccc(F)cc1)c1cc(Br)cc(NC(=O)c2cc3cc(NS(C)(=O)=O)ccc3s2)c1" ?
0.026

----------
Test system: LNCaP
test-details: Cell growth inhibition assay, prostate cancer cell line LNCaP (medium with 10 ng/mL IL-6)
Assay type: cell-based
condition-description: Homo sapiens, medium supplemented with 10 ng/mL of IL-6, 10,000 cells/well
Just a reminder that ties go to false (0): only IC50 strictly below 2 µM counts as true (1).

1. CS(=O)(=O)Nc1ccc2cc(C(=O)Nc3cc(Br)cc(-c4ccc(F)cc4F)c3)[nH]c2c1
false (0)
2. O=C(Nc1cccc(-c2ccccc2C(F)(F)F)c1)c1cc2cc([N+](=O)[O-])ccc2[nH]1
false (0)
3. Cc1c(C(=O)Nc2cccc(C(C)(C)c3ccc(F)cc3)c2)sc2ccc(NS(C)(=O)=O)cc12
false (0)
4. COc1cccc(Oc2cc(Cl)cc(NC(=O)c3cc4cc(NS(C)(=O)=O)ccc4s3)c2)c1
true (1)
5. CC(C)(C)OC(=O)N1CCN(Cc2cccc(C(C)(C)c3cc(Br)cc(NC(=O)c4cc5cc(NS(C)(=O)=O)ccc5s4)c3)c2)CC1
true (1)

# check: IC50 < 2 µM for "CC(C)(c1cc(Cl)cc(NC(=O)c2cc3cc(NS(C)(=O)=O)ccc3s2)c1)c1cc(OCC(F)(F)F)cc(OC(F)(F)F)c1"
true (1)
